- tested.target: T1, HLA-A*02:01 (peptide-receptive MHC class I monomer after UV cleavage of the UV-sensitive ligand) (human)
- T1 construct: MHC monomers loaded by UV-ligand exchange and captured on streptavidin plates
- measurement.protocol: UV ligand-exchange ELISA; exchange yield grade (+ >=10%, ++ >=20%, +++ >=50%, ++++ >=75%)
reported.endpoint: peptide exchange yield

Sample answers from the record:
binder	peptide exchange yield
FLAILPEEV [FLAILPEEV (SEQ ID NO: 112)]	50 to 75%
TILGDPQILL [TILGDPQILL (SEQ ID NO: 49)]	≥ 75%

Req: Entry FVDTNLYFL [FVDTNLYFL (SEQ ID NO: 179)] : reported peptide exchange yield = ?
Resp: 50 to 75%

Req: Param item = KLLFEIASA [KLLFEIASA (SEQ ID NO: 92)] ; retrieve measured peptide exchange yield.
Resp: 50 to 75%

Req: Return reported peptide exchange yield; argument: ALMPVTPQA [ALMPVTPQA (SEQ ID NO: 283)]
Resp: 50 to 75%

Req: Need peptide exchange yield of FLAEQFEFL [FLAEQFEFL (SEQ ID NO: 210)] , thanks.
Resp: 50 to 75%

Req: Would you mind telling me what peptide exchange yield value was observed for SLAPFDREPFTL [SLAPFDREPFTL (SEQ ID NO: 194)] ?
Resp: 20 to 50%

Req: I am curious: what peptide exchange yield value has been reported for FLASPLVAI [FLASPLVAI (SEQ ID NO: 139)] ?
Resp: ≥ 75%
